Sourced from the nanobody polyreactivity screen of Harvey et al. (2022)

experiment-summary: yeast display, Sf9 membrane polyspecificity reagent, FACS + sequencing; frameworks hold sequencing errors
assay-metric: polyreactivity (PSR sort gate)

[[record]]
monomer_sequence = "QVQLVESGGGLVQAGGSLRLSCAASGSIFPGYSMGWCRQAPGKERELVAAISISGGDTYYADSVKGRFTISRDNAKNTGYFQMNSLKPEDTSVYHCNKEDDDREWFEYYWWYDYWGQGTQVTVTS"
assay_metric = "polyreactivity (PSR sort gate)"
measured_result = "high polyreactivity"

[[record]]
monomer_sequence = "QVQLVESGGGLVQAGGSLRLSCAASGRIFAYYAKGWYRQAPRKQRELVAAISSGGNTNYADSVKGRFTISRDNAKKTVYLQMNSLKPEDSAVYYCSAYHFSFGWIRVDDWGQGTQVTVSS"
assay_metric = "polyreactivity (PSR sort gate)"
measured_result = "high polyreactivity"

[[record]]
monomer_sequence = "QVQIVESGGGLVQAGGSLRLSWASSGRIFYSNAMGRYRQAPGKERELVAAISYSGDSTYYADSVQGRFTISRDNAKNTGYFQMNSLKPEVTAVYYCAAETYVGEDYWGQGTQETVSS"
assay_metric = "polyreactivity (PSR sort gate)"
measured_result = "high polyreactivity"

